The reported measurements were obtained from patent US11357779B2.

assay: Plasma concentration versus time of Compound I and metabolite Compound III in patients dosed QD or BID with Form B of Compound II plus fulvestrant; format: in vivo, human; conditions: human, plasma, oral, 300 mg, 300 mg QD of Form B, Day 29, 0.0 h, Median; read-out: Compound I Concentration
Recorded Metric: concentration at 0 h (ng/mL)

INSERT INTO measurements (structure_smiles_string, readout_number) VALUES
  ('CC(C)N1CCN(c2ccc(Nc3ncc4cc5n(c4n3)C3(CCCCC3)CNC5=O)nc2)CC1', 8.24);

* * *

experiment: Plasma concentration versus time of Compound I and metabolite Compound III in patients dosed QD or BID with Form B of Compound II plus fulvestrant; format: in vivo, human; settings: human, plasma, oral, 500 mg, 500 mg QD of Form B, Day 1, 3.0 h, Median; read-out: Compound I Concentration
Recorded Metric: concentration at 3 h (ng/mL)

INSERT INTO results (structure_smiles_string, recorded_metric, unit_string, readout_number) VALUES
  ('CC(C)N1CCN(c2ccc(Nc3ncc4cc5n(c4n3)C3(CCCCC3)CNC5=O)nc2)CC1', 'concentration at 3 h', 'ng/mL', 27.4);

* * *

assay: Plasma concentration versus time of Compound I and metabolite Compound III in patients dosed QD or BID with Form B of Compound II plus fulvestrant; assay type: in vivo, human; conditions: human, plasma, oral, 300 mg, 300 mg QD of Form B, Day 29, 3.0 h, Median; read-out: Compound I Concentration
Recorded Metric: concentration at 3 h (ng/mL)

INSERT INTO measurements (structure_smiles_string, recorded_metric, unit_string, readout_number) VALUES
  ('CC(C)N1CCN(c2ccc(Nc3ncc4cc5n(c4n3)C3(CCCCC3)CNC5=O)nc2)CC1', 'concentration at 3 h', 'ng/mL', 26.3);

* * *

assay: Noncompartmental pharmacokinetic parameters (Cmax, Tmax, AUC, Racc) in QD and BID cohorts of Form B; type: in vivo, human; conditions: human, plasma, oral, 500 mg, Compound I; 500 mg QD of Form B; Cohort 4; Day 29; read-out: Tmax (Median)
Recorded Metric: Tmax (h)

INSERT INTO results (compound, unit_string, readout_number) VALUES
  ('CC(C)N1CCN(c2ccc(Nc3ncc4cc5n(c4n3)C3(CCCCC3)CNC5=O)nc2)CC1 [Compound I]', 'h', 6);

* * *

assay: Plasma concentration versus time of Compound I and metabolite Compound III in patients dosed QD or BID with Form B of Compound II plus fulvestrant; format: in vivo, human; conditions: human, plasma, oral, 150 mg, Cohort 7, 150 mg BID of Form B, Day 29, 3.0 h; read-out: Compound I Concentration, Median
Recorded Metric: concentration at 3 h (ng/mL)

INSERT INTO results (structure_smiles_string, recorded_metric, unit_string, readout_number) VALUES
  ('CC(C)N1CCN(c2ccc(Nc3ncc4cc5n(c4n3)C3(CCCCC3)CNC5=O)nc2)CC1', 'concentration at 3 h', 'ng/mL', 35.6);

* * *

assay: Plasma concentration versus time of Compound I and metabolite Compound III in patients dosed QD or BID with Form B of Compound II plus fulvestrant; format: in vivo, human; conditions: human, plasma, oral, 500 mg, 500 mg QD of Form B, Day 29, 1.0 h, Median; read-out: Compound I Concentration
Recorded Metric: concentration at 1 h (µg/mL)

INSERT INTO assay_data (compound, recorded_metric, unit_string, readout_number) VALUES
  ('CC(C)N1CCN(c2ccc(Nc3ncc4cc5n(c4n3)C3(CCCCC3)CNC5=O)nc2)CC1 [Compound I]', 'concentration at 1 h', 'µg/mL', 0.0176);

* * *

assay: Plasma concentration versus time of Compound I and metabolite Compound III in patients dosed QD or BID with Form B of Compound II plus fulvestrant; type: in vivo, human; conditions: human, plasma, oral, 500 mg, Cohort 4, 500 mg QD of Form B, Day 15; read-out: Trough Compound III Concentration, Max
Recorded Metric: concentration at 15 day (ng/mL)

INSERT INTO assay_data (structure_smiles_string, readout_number) VALUES
  ('O=C1NCC2(CCCCC2)n2c1cc1cnc(Nc3ccc(N4CCNCC4)cn3)nc12', 2.66);

* * *

assay: Plasma concentration versus time of Compound I and metabolite Compound III in patients dosed QD or BID with Form B of Compound II plus fulvestrant; format: in vivo, human; details: human, plasma, oral, 100 mg, Cohort 6, 100 mg BID of Form B, Day 29, 3.0 h; read-out: Compound I Concentration, Median
Recorded Metric: concentration at 3 h (ng/mL)

INSERT INTO assay_data (structure_smiles_string, readout_number) VALUES
  ('CC(C)N1CCN(c2ccc(Nc3ncc4cc5n(c4n3)C3(CCCCC3)CNC5=O)nc2)CC1', 8.31);

* * *

experiment: Noncompartmental pharmacokinetic parameters (Cmax, Tmax, AUC, Racc) in QD and BID cohorts of Form B; format: in vivo, human; conditions: human, plasma, oral, 200 mg, Compound III; 200 mg QD of Form B; Cohort 1; Day 1; read-out: Tmax (Mean)
Recorded Metric: Tmax (h)

INSERT INTO assay_data (compound, readout_number) VALUES
  ('O=C1NCC2(CCCCC2)n2c1cc1cnc(Nc3ccc(N4CCNCC4)cn3)nc12 [Compound III]', 4.17);

* * *

Assay: Noncompartmental pharmacokinetic parameters (Cmax, Tmax, AUC, Racc) in QD and BID cohorts of Form B
Assay type: in vivo, human
Details: human, plasma, oral, 200 mg, Cohort 1, 200 mg QD of Form B, Day 1; read-out: Tmax, Median
Method: Analysis of plasma concentration versus time data for calculation of standard pharmacokinetic (PK) parameters following oral administration was conducted using Phoenix WinNonlin version 6.3 using actual blood sampling times. […]
Recorded Metric: Tmax

INSERT INTO assay_data (structure_smiles_string, result) VALUES
  ('CC(C)N1CCN(c2ccc(Nc3ncc4cc5n(c4n3)C3(CCCCC3)CNC5=O)nc2)CC1', '4 h');

* * *

assay: Plasma concentration versus time of Compound I and metabolite Compound III in patients dosed QD or BID with Form B of Compound II plus fulvestrant; type: in vivo, human; details: human, plasma, oral, 500 mg, 500 mg QD of Form B, Day 1, 12.0 h, Median; read-out: Compound I Concentration
Recorded Metric: concentration at 12 h (ng/mL)

INSERT INTO assay_data (structure_smiles_string, recorded_metric, unit_string, readout_number) VALUES
  ('CC(C)N1CCN(c2ccc(Nc3ncc4cc5n(c4n3)C3(CCCCC3)CNC5=O)nc2)CC1', 'concentration at 12 h', 'ng/mL', 28.3);

* * *

assay: Plasma concentration versus time of Compound I and metabolite Compound III in patients dosed QD or BID with Form B of Compound II plus fulvestrant; type: in vivo, human; conditions: human, plasma, oral, 500 mg, Cohort 4, 500 mg QD of Form B, Day 29, 2.0 h; read-out: Compound III Concentration, Mean
Recorded Metric: concentration at 2 h (ng/mL)

INSERT INTO assay_data (compound, recorded_metric, readout_number) VALUES
  ('O=C1NCC2(CCCCC2)n2c1cc1cnc(Nc3ccc(N4CCNCC4)cn3)nc12 [Compound III]', 'concentration at 2 h', 4.39);

* * *

assay: Noncompartmental pharmacokinetic parameters (Cmax, Tmax, AUC, Racc) in QD and BID cohorts of Form B; assay type: in vivo, human; details: human, plasma, oral, 200 mg, Cohort 1, 200 mg QD of Form B, Day 1; read-out: Cmax, Mean
Recorded Metric: Cmax (µg/mL)

INSERT INTO results (compound, recorded_metric, readout_number) VALUES
  ('CC(C)N1CCN(c2ccc(Nc3ncc4cc5n(c4n3)C3(CCCCC3)CNC5=O)nc2)CC1 [Compound I]', 'Cmax', 0.0255);

* * *

test: Plasma concentration versus time of Compound I and metabolite Compound III in patients dosed QD or BID with Form B of Compound II plus fulvestrant; assay type: in vivo, human; settings: human, plasma, oral, 100 mg, Cohort 6, 100 mg BID of Form B, Day 29, 6.0 h; read-out: Compound I Concentration, Min
Recorded Metric: concentration at 6 h (ng/mL)

INSERT INTO measurements (molecule, readout_number) VALUES
  ('CC(C)N1CCN(c2ccc(Nc3ncc4cc5n(c4n3)C3(CCCCC3)CNC5=O)nc2)CC1 [Compound I]', 4.1);

* * *

test: Plasma concentration versus time of Compound I and metabolite Compound III in patients dosed QD or BID with Form B of Compound II plus fulvestrant; type: in vivo, human; settings: human, plasma, oral, 400 mg, 400 mg QD of Form B, Day 1, 2.0 h, Median; read-out: Compound I Concentration
Recorded Metric: concentration at 2 h (ng/mL)

INSERT INTO measurements (structure_smiles_string, recorded_metric, readout_number) VALUES
  ('CC(C)N1CCN(c2ccc(Nc3ncc4cc5n(c4n3)C3(CCCCC3)CNC5=O)nc2)CC1', 'concentration at 2 h', 4.83);
